Hey, just so you know, these numbers are from PubChem BioAssay (NCI).

Test system: SNB-19 CNS
Assay Text: NCI tumour cell line growth inhibition, 48 h
Where a SMILES comes first, the peptide text is derived from it.
Readout Name: TGI

// below: answered molecules
>>> recorded_result("CCOC(=O)[C@H]1Nc2ccc(Cl)cc2[C@H]2OCC[C@@H]12")
"> 100 µM"
>>> recorded_result("Cc1nc(-c2nc(C)c(C(=O)NN(C)C)s2)sc1C(=O)NN(C)C")
"> 100 µM"
>>> recorded_result("ICCC(c1ccccc1)(c1ccccc1)c1ccccc1")
"31.1 µM"
>>> recorded_result("C/C=C/C(C#N)(Cc1ccccc1)OP1(=O)OC(c2ccccc2)C(C)N1C (configuration not stated)")
"> 100 µM"
>>> recorded_result("CC(=O)NC(CS)C(=O)NC(CO)C(=O)NC(CO)C(=O)NC(Cc1c[nH]c2ccccc12)C(=O)N1CCCC1C(=O)NC(CO)C(=O)NC(Cc1c[nH]c2ccccc12)C(=O)NC(Cc1c[nH]cn1)C(=O)NC(CO)C(=O)NC(Cc1c[nH]c2ccccc12)C(=O)NCC(=O)NCC(=O)NC(CC(=O)O)C(=O)NC(CCC(N)=O)C(=O)NC(CCCCN)C(=O)NC(Cc1ccccc1)C(=O)NC(CCCNC(=N)N)C(=O)NC(CCCCN)C(N)=O (configuration not stated) (Ac-CSSWPSWHSWGGDQKFRK-NH2; configuration not given here)")
"> 25 µM"

I'm hoping you can list TGI for every molecule here, please.
1. COc1ccccc1N1C(=O)CS(=O)(=O)C1c1cccc(Oc2ccccc2)c1 (configuration not stated)
2. COc1ccc2[nH]c(=O)c(/C=C/C(=O)/C=C/c3ccc(O)c(OC)c3)cc2c1
3. CC(=O)Nc1ccccc1-c1cnc2ccccc2n1
4. CC(CO)(CO)Nc1ncnc2ccccc12
5. CN1CCN(Cc2ccc(NC(=O)c3nc4ccc5[nH]ncc5c4c4c3CCC4)cc2C(F)(F)F)CC1
6. Cc1cc(C)n(-c2nc3ccccc3c(=O)n2-c2ccccc2)n1

A.
["38.7 µM", "3.92 µM", "> 100 µM", "> 100 µM", "2.11 µM", "> 100 µM"]

Each of the following entries comes with a recorded value; kindly state TGI for each.
1. C#C[C@@]1(O)[C@@H](CO)O[C@@H](n2ccc3c(N)ncnc32)[C@@H]1O
2. CC1(C)CC(OCCCC[P+](c2ccccc2)(c2ccccc2)c2ccccc2)CC(C)(C)N1O
3. CO[C@@H]1C=C[C@@]23c4cc5c(cc4C(O)N(CC2O)C3C1)OCO5 (some centres not stated)

A.
6.61 µM
2.2 µM
33.8 µM

For every listed record, write down its TGI.
1. Cc1ccc(N=Nc2c(N)nn(-c3ccccc3)c2N)cc1
2. CCOC(=O)CCC(NC(=O)c1ccc(Nc2nc3ccccc3n3cccc23)cc1)C(=O)OCC (configuration not stated)

A.
1. > 100 µM
2. > 100 µM

Count: 4. Required value per item: TGI.
1. O=C1Oc2ccccc2C(=O)/C1=C/N1C(=O)N/C(=C\c2cccc(O)c2)C1=O
2. O=C1Nc2cc([N+](=O)[O-])ccc2C(=O)N2CCC[C@@H]12
3. N#CSCc1c(Cl)cccc1Cl
4. NCCCCN(CCCN)Cc1ccccc1

A.
["> 100 µM", "> 100 µM", "> 100 µM", "> 100 µM"]

----------
Test system: HS 578T breast
Assay Text: NCI tumour cell line growth inhibition, 48 h
Readout Name: GI50

Use the examples below as a reference point.
>>> recorded_result("COc1ccc2[nH]c(=O)c(/C=C/C(=O)/C=C/c3ccc(O)c(OC)c3)cc2c1")
"3810 nM"
>>> recorded_result("CCCCCCCCCCCC[n+]1ccccc1")
"1870 nM"

Attention now shifts to the item below.
Q. Please tell me: GI50 of `N#Cc1cccc(/C=C(/C(=O)c2ccccc2)c2ccccc2)c1` , system HS 578T breast?
A. 2900 nM

----------
Tested on: NCI-H522 lung
Assay Text: NCI tumour cell line growth inhibition, 48 h; in the data active = GI50 below about 0.43 µM; inactive = the rest
Select the correct class. Options are Yes = active, No = inactive and nothing else.

Solved cases (3 shown):
>>> group("Fc1ccc(-c2nnc3sc(COc4ccccc4Cl)nn23)cc1Cl")
"No"
>>> group("CCN(CC)CCCOc1cc(O)c2c(=O)cc(-c3ccccc3)oc2c1")
"No"
>>> group("Nc1ccn(C2CC(O)C(CO)O2)c(=O)n1 (stereo unspecified)")
"No"

Q. Given `COc1c(NC(=O)CC(C)=O)[c]([Hg][O]C(C)=O)c(OC)c(Cl)[c]1[Hg][O]C(C)=O` , state the outcome it received in this test.
A. No

Q. Outcome? Nc1ncnc2c(C3OC(CO)C(O)C3O)[nH]nc12 (stereo unspecified)
A. Yes

Q. Identify the outcome logged in this assay for the molecule shown: `CC1(C)N=C(N)N=C(N)N1c1cccc(CCCCc2ccccc2)c1`
A. No

Q. What did the test return for `COc1ccc2[nH]c(=O)c(/C=C/C(=O)/C=C/c3ccc(O)c(OC)c3)cc2c1` ?
A. No

Q. Call for entry `COc1cc(Cn2ccc3c2-c2oncc2CC3)cc(OC)c1` :
A. No

----------
Tested on: RXF 393 renal
Assay Text: NCI tumour cell line growth inhibition, 48 h
Readout Name: TGI

Solved cases below.
>>> recorded_result("COc1cc([C@@H]2c3cc4c(cc3[C@@H](NCc3ccccc3)C3COC(=O)[C@@H]32)OCO4)cc(OC)c1O (some centres undefined)")
"72.2 µM"
>>> recorded_result("COC(=O)c1c2c(c(-c3ccccc3)c3c1-c1nc(Cl)ccc1CC3)CCc1ccc(Cl)nc1-2")
"> 100 µM"
>>> recorded_result("NC1=CN(Cc2ccccc2)C2=N/C(=C\\c3ccccc3)C(=O)N12")
"> 100 µM"
>>> recorded_result("N#Cc1c(N)c2c(c(-c3ccccc3)c1-c1ccccc1)C(=O)N(NC(=O)c1ccccc1)C2=O")
"> 100 µM"
>>> recorded_result("OCCNc1ncnc2c1ncn2C1OC(CO)C(O)C1O (centres undefined)")
"> 100 µM"

// batch mode: one TGI value per listed entry
1. O=P(O)(O)C1CCCC(P(=O)(O)O)N1 (centres undefined)
2. Cn1c(Sc2ccc(-c3cccnc3)n2C)ccc1-c1cccnc1
3. N#Cc1c(C#N)c(-c2ccco2)n(-c2ccccc2)c1N
4. O=C1Nc2cc([N+](=O)[O-])ccc2C(=O)N2CCC[C@@H]12
5. Cc1ccccc1NC(=O)C1C(=O)N(c2ccccc2C)C(=O)/C1=N\N (centres undefined)
6. O=C1c2cc3c(cc2[C@@H]2[C@H]1c1ccc([N+](=O)[O-])cc1C(=O)N2CCCCl)OCO3
7. COc1cc(S(=O)(=O)Nc2nc(-c3ccc(N)cc3)cs2)ccc1Cl
8. CC(CO)(CO)Nc1ncnc2ccccc12

A.
1. > 100 µM
2. 36.3 µM
3. > 100 µM
4. > 100 µM
5. > 100 µM
6. 10.1 µM
7. > 100 µM
8. > 100 µM

Give TGI for all compounds that follow.
1. CC1(c2nc3ccccc3[nH]2)CCC(C(N)=O)C(C)(C)O1 (centres undefined)
2. CCCN(CCC)c1cc2c(cc1F)c(=O)c(C(=O)O)cn2-c1ccc(N2CCN(C)CC2)cn1

A.
1. > 100 µM
2. 33.1 µM

----------
System: SN12C renal
Assay Text: NCI tumour cell line growth inhibition, 48 h
Readout Name: TGI (µM)
One number for each entry, in µM.

# count of solved cases: 3
>>> recorded_result("O=C1c2cscc2C(=O)C1(O)O")
36.3
>>> recorded_result("Cc1ccc(C(CC(=O)C(C)(C)CN2CCCCC2)SCCS(=O)(=O)O)cc1 (stereo not given)")
94.8
>>> recorded_result("CN(C)C(=O)c1cc2cnc(Nc3ccc(-c4csc5c(=O)cc(N6CCNCC6)oc45)cc3)nc2n1C1CCCC1")
16.8

Alright, here's another molecule for you.
Q. Fill blank: measured TGI of the molecule `Cc1c2cccc-2ccc2c1[nH]c1ccc(Br)cc12` is ____.
A. 27.2

----------
System: NCI-H522 lung
Assay Text: NCI tumour cell line growth inhibition, 48 h
// label = y if TGI is not less than 10 µM, otherwise n

Some solved cases for reference:
>>> group("CC(C)(C)OC(=O)NC(Cc1ccc(OCc2ccccc2)cn1)C(=O)NCc1ccccc1 (configuration not stated)")
"y"
>>> group("CC[C@H](C)[C@H](NC(=O)Nc1ccccc1)C(=O)N(C)[C@H](C[C@@H](OC(C)=O)c1nc(C(=O)N[C@@H](Cc2ccccc2)C[C@H](C)C(=O)OC)cs1)C(C)C")
"y"
>>> group("CCN(CC)CCCOc1cc(O)c2c(=O)cc(-c3ccccc3)oc2c1")
"y"
>>> group("c1ccc(N=c2sc3ccccc3sc2=Nc2ccccc2)cc1")
"n"
>>> group("Cc1ccc(C(CC(=O)C(C)(C)CN2CCCCC2)SCCS(=O)(=O)O)cc1 (configuration not stated)")
"y"

Q. Determine whether this molecule has TGI no lower than 10 µM: `NC(=S)NNC(=O)CCC(=O)Nc1ccc(Cl)cc1Cl`
A. y
